B1: C2orf65 (parent)
chain: QLDWDELETNQQHFHALCHSLLVS

# Variants of: B1
# test_name: protein stability index of a GFP-peptide fusion (GPS, HEK-293T) (PSI 1-6); higher = more stable;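 note: lentivirally expressed fusions sorted by FACS into six bins by GFP to DsRed ratio, PSI derived from sequencing read proportions per bin multiplied by bin number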
# assay_conditions: c terminus: a fixed tail appended

>  <variant_id>
D5K

>  <protein stability index>
2

$$$$
>  <variant_id>
E6R

>  <protein stability index>
1.96

$$$$
>  <variant_id>
Q11P

>  <protein stability index>
2.02

$$$$
>  <variant_id>
D5M

>  <protein stability index>
1.95

$$$$
